// each record: one item and its IC50 for Full-length WT ClbP (Escherichia coli)
property-measured: IC50

> print(dat)
                                    compound                            study.system       reported
 1  NC(=O)C[C@@H](NC(=O)CCCc1ccncc1)C(=O)NCCc1ccc(O)cc1 [Compound CCLI]  Full-length WT ClbP (Escherichia coli)       < 100 µM
 2  CCCCCCCC(=O)N[C@H](CC(N)=O)C(=O)NC[C@@H](C)c1ccccc1 [Compound CCCII]  Full-length WT ClbP (Escherichia coli)       < 100 µM
 3  CCCCCCCC(=O)N[C@H](CC(N)=O)C(=O)N[C@H](C)Cc1ccccc1 [Compound CCIII]  Full-length WT ClbP (Escherichia coli)       < 100 µM
 4  NC(=O)C[C@@H](NC(=O)CCCC1CCCC1)C(=O)NCCc1ccccc1 [Compound CCLXIII]  Full-length WT ClbP (Escherichia coli)       < 100 µM
 5  CCCCCCCC(=O)N[C@H](CC(N)=O)C(=O)NCCOc1ccccc1 [Compound CCLIV]  Full-length WT ClbP (Escherichia coli)       < 100 µM
 6  NC(=O)C[C@@H](NC(=O)CCCC1CCNCC1)C(=O)NCCc1ccc(O)cc1 [Compound CCLII]  Full-length WT ClbP (Escherichia coli)  100 to 300 µM
 7  CCCCCCCCCC(=O)N[C@H](CC(N)=O)C(=O)NCCc1ccc(O)cc1 [Compound CCXXI]  Full-length WT ClbP (Escherichia coli)       < 100 µM
 8  CCCCCCCC(=O)N[C@H](CC(N)=O)C(=O)NCCc1ccc(C(=O)O)cc1 [Compound CXCVIII]  Full-length WT ClbP (Escherichia coli)       < 100 µM
 9  CCCCCCCC(=O)N[C@H](CC(=O)NO)C(=O)NCCc1ccc(O)c(O)c1 [Compound CCXCIII]  Full-length WT ClbP (Escherichia coli)       < 100 µM
10  NC(=O)C[C@@H](NC(=O)CCCc1ccc(O)cc1)C(=O)NCCc1ccc(O)cc1 [Compound CCLIII]  Full-length WT ClbP (Escherichia coli)       < 100 µM
11  CCCCCCCC(=O)N[C@@H](CNC(C)(C)C)CC(N)=O [Compound VIII]  Full-length WT ClbP (Escherichia coli)       < 100 µM
12  CCCCCCCC(=O)N[C@H](CC(N)=O)C(=O)NC[C@H](C)c1ccccc1 [Compound CCCI]  Full-length WT ClbP (Escherichia coli)       < 100 µM
13  CCCCCCCC(=O)N[C@H](CC(N)=O)C(=O)NCCc1ccc(=O)[nH]c1 [Compound CCXXXV]  Full-length WT ClbP (Escherichia coli)       < 100 µM
14  CCCCCCC(F)(F)C(=O)N[C@H](CC(N)=O)C(=O)NCCc1ccc(O)cc1 [Compound CCXXXVI]  Full-length WT ClbP (Escherichia coli)       < 100 µM
15  NC(=O)C[C@@H](NC(=O)CCCC1CCCCC1)C(=O)NCCc1ccc(O)cc1 [Compound CCXXII]  Full-length WT ClbP (Escherichia coli)       < 100 µM
16  CN1CCC(CCCC(=O)N[C@H](CC(N)=O)C(=O)NCCc2ccc(O)cc2)CC1 [Compound CCCVIII]  Full-length WT ClbP (Escherichia coli)       > 300 µM
17  CCCCCCCC(=O)N[C@H](CC(N)=O)C(=O)NCCc1ccc(C(F)(F)F)cc1 [Compound CXCV]  Full-length WT ClbP (Escherichia coli)  100 to 300 µM
18  NC(=O)C[C@@H](NC(=O)CCCCCCC(=O)O)C(=O)NCCc1ccccc1 [Compound CCLXIV]  Full-length WT ClbP (Escherichia coli)  100 to 300 µM
19  CCCCCCCC(=O)N[C@H](CC(N)=O)C(=O)NCc1ccccc1 [Compound CCI]  Full-length WT ClbP (Escherichia coli)       < 100 µM
20  NC(=O)C[C@@H](NC(=O)CCCCC(F)(F)F)C(=O)NCCc1ccc(O)cc1 [Compound CCXCII]  Full-length WT ClbP (Escherichia coli)       < 100 µM
21  NC(=O)C[C@@H](NC(=O)CCCC1CCCCC1)C(=O)NCCc1ccccc1 [Compound CCLXX]  Full-length WT ClbP (Escherichia coli)       < 100 µM
22  CCCCCCCC(=O)N[C@H](CC(N)=O)C(=O)NCCN1CCN(C)CC1 [Compound CXC]  Full-length WT ClbP (Escherichia coli)  100 to 300 µM
23  CCCCCCCC(=O)N[C@H](CC(N)=O)C(=O)NCCc1ccc(OC)c(OC)c1 [Compound CCXLIX]  Full-length WT ClbP (Escherichia coli)       < 100 µM
24  CCCCCCCC(=O)N[C@H](CC(N)=O)C(=O)NCCc1nnn[nH]1 [Compound CCXXXIII]  Full-length WT ClbP (Escherichia coli)       < 100 µM
25  CCCCCCCC(=O)N[C@H](CC(N)=O)CN(C)CCc1ccccc1 [Compound XVI]  Full-length WT ClbP (Escherichia coli)       < 100 µM
26  CCCCCCCC(=O)N[C@@H](/C=C/C(=O)OCC)CC(N)=O [Compound CCLXXIII]  Full-length WT ClbP (Escherichia coli)  100 to 300 µM
27  CCCCCCCC(=O)N[C@H](CC(N)=O)C(=O)c1nccn1Cc1ccccc1 [Compound CCLVIII]  Full-length WT ClbP (Escherichia coli)  100 to 300 µM
28  CCCCCCCC(=O)N[C@H](CC(N)=O)C(=O)C(=O)NCc1ccccc1 [Compound CCLXXXIII]  Full-length WT ClbP (Escherichia coli)       < 100 µM
29  CCCCCCCC(=O)N[C@@H](CNCCc1ccccc1)CC(N)=O [Compound IX]  Full-length WT ClbP (Escherichia coli)  100 to 300 µM
30  CCCCCCCC(=O)N[C@H](CC(N)=O)C(=O)NCCc1ccc(C(=O)OC)cc1 [Compound CXCVII]  Full-length WT ClbP (Escherichia coli)       < 100 µM
31  CCCCCCCC(=O)N[C@H](CC(N)=O)C(=O)NCCc1ccc(F)cc1 [Compound CCLXXIV]  Full-length WT ClbP (Escherichia coli)       < 100 µM
32  O=C(C[C@@H](NC(=O)CCCC1CCCCC1)C(=O)NCCc1ccc(O)cc1)NO [Compound CCXCVI]  Full-length WT ClbP (Escherichia coli)       < 100 µM
33  CCCCCCCC(=O)N[C@H](CC(N)=O)C(=O)NCCc1cccc(O)c1 [Compound CCXXIII]  Full-length WT ClbP (Escherichia coli)       < 100 µM
34  CCCCCCCC(=O)N[C@H](CC(N)=O)C(=O)NCCc1ccccn1 [Compound CCV]  Full-length WT ClbP (Escherichia coli)       < 100 µM

* * *

Collected IC50 values appear next to each entry.
study-system: ClbP (Escherichia coli)
protocol-summary: ClbP whole cell activity (inhibition) assay, fluorogenic substrate
Format: cell-based, E. coli
Description: Whole Cell Activity Assay 1) E. coli ClbP+ were taken from a frozen stock and streaked onto BHI plates. They were grown aerobically at 37° C. overnight in the incubator. […] 4) The plate was loaded into a spectrophotometer preheated to 37° C. The fluorescence was recorded every 2 min for 46 min. […] 5) The linear portion of the fluorescence increase was 10-30 min. The rate of fluorescence increase (A.U./min) for each well in an inhibitor series was normalized to the 0 μM inhibitor condition. […]
property-measured: IC50

> print(dat)
                                test.smiles  property.measured  reported
1  CCCCCCCC(=O)N[C@H](CC(N)=O)C(=O)c1nccn1Cc1ccccc1               IC50  > 300 µM
2  NC(=O)C[C@@H](NC(=O)CCC1CCCC1)C(=O)NCCc1ccccc1               IC50  < 100 µM
3  CCCCCCCC(=O)N[C@H](CC(N)=O)C(=O)NCCc1ccc(OC)cc1               IC50  < 100 µM
4  NC(=O)C[C@@H](NC(=O)/C=C/CC1CCCC1)C(=O)NCCc1ccc(O)cc1               IC50  < 100 µM

* * *

study-system: ClbP (Escherichia coli, UniProt Q0P7K6)
protocol-summary: ClbP whole cell activity (inhibition) assay, fluorogenic substrate
Format: cell-based, E. coli
Reported IC50 values follow for various compounds
property-measured: IC50

> print(dat)
                                test.smiles  property.measured  reported
1  CCCCCCCC(=O)N[C@H](CC(N)=O)C(=O)NCCn1cnnc1               IC50  < 100 µM
2  CCCCCCCC(=O)N[C@H](CC(N)=O)C(=O)NCCC1CCNCC1               IC50  < 100 µM
3  CCCCCCCC(=O)N[C@H](CC(=O)NC)C(=O)NCCc1ccc(O)cc1               IC50  < 100 µM
4  CCCCCCCC(=O)N[C@H](CC(N)=O)c1nnc(CCc2ccccc2)o1               IC50  > 300 µM
